Human CB1 receptor (Homo sapiens) data, read-out Ki
Sequence (P21554 whole entry): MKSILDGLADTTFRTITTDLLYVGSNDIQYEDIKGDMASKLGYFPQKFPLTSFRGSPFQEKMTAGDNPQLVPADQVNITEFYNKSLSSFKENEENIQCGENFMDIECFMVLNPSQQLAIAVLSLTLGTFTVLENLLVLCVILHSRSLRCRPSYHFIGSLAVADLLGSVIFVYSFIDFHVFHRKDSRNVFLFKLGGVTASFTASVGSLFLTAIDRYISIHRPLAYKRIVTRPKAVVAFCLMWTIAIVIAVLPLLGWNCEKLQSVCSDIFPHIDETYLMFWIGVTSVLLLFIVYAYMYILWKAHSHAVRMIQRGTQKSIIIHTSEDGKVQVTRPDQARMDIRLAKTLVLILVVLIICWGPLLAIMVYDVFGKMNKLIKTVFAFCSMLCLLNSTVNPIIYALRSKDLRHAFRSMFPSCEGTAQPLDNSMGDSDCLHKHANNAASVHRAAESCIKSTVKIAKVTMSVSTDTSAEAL
Quick note: number first, unit second.

Recall the reported Ki of O=C(NCC1CCC1)c1cc(Cl)ccc1NC(=O)c1cccc2ccccc12 on Human CB1 receptor (Homo sapiens) and write it down.
0.0073 µM

Recall the reported Ki of O=C(NC1CCOCC1)c1cc(Cl)ccc1NC(=O)c1cccc2ccccc12 on Human CB1 receptor (Homo sapiens) and write it down.
0.071 µM
